QUANTITY: melting point

[ask] For Cc1oc(-c2ccccc2)nc1COc1ccc(COc2nn(-c3ccccc3)cc2/C=C/C(=O)O)cc1 , what is its reported melting point?
[reply] 186 to 187 °C

[ask] Same question, COc1cc(COc2nn(-c3ccccc3)cc2CCO)ccc1OCc1nc(-c2ccco2)oc1C this time
[reply] 123 to 124 °C

[ask] Same question, Cc1oc(-c2ccco2)nc1COc1ccc(COc2nn(Cc3ccccc3)cc2C(=O)O)cn1 this time
[reply] 151 to 152 °C

[ask] Same question, CCOC(=O)/C=C/c1nc(COc2ccc(COc3nn(-c4ccccc4)cc3/C=C/c3csc(CC)n3)cc2OC)c(C)o1 [Example 322 (E form)] this time
[reply] 95 to 96 °C

---

Exercise: for every item that follows, state its recorded melting point.

[ask] For CCOC(=O)Cc1ccc(-c2nc(COc3ccc(COc4nn(-c5ccccc5)cc4/C=C/c4coc(CC)n4)cc3OC)c(C)o2)cc1 [Example 366] , what is its reported melting point?
[reply] 155 to 157 °C

[ask] Same question, CCOP(=O)(/C=C/c1cn(CC)nc1OCc1ccc(OCc2nc(-c3ccco3)oc2C)c(OC)c1)OCC this time
[reply] 82 to 84 °C

[ask] Same question, C=CC(c1cn(-c2ccccc2)nc1OCc1ccc(OCc2nc(-c3ccco3)oc2C)c(OC)c1)n1cncn1 (stereo not shown) [Example 110] this time
[reply] 115 to 116 °C

[ask] Same question, CCCc1nnc(/C=C/c2cn(-c3ccccc3)nc2OCc2ccc(OCc3nc(-c4ccco4)oc3C)c(OC)c2)o1 [Example 127] this time
[reply] 165 to 166 °C

---

- ASSAY SYSTEM: human PPARγ1 (Homo sapiens, UniProt P37231)
- Construct: crude supernatant of the lysate, not purified
- Sequence (P37231 29-505): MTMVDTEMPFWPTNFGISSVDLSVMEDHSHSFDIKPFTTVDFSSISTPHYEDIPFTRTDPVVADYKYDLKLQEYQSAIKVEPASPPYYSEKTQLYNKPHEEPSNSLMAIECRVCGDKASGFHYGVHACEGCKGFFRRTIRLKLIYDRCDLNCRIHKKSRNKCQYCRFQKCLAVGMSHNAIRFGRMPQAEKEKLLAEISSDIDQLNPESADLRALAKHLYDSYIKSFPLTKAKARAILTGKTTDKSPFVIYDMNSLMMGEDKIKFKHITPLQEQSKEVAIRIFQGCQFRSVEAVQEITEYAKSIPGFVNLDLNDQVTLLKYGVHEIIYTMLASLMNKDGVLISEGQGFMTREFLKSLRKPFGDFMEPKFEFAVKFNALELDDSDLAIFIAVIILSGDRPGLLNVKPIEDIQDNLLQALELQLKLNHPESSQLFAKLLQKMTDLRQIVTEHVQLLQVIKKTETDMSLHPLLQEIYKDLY
- PROTOCOL: Measurement of human PPARγ1 binding activity ([3H]-compound A displacement)
- APPLIED CONDITIONS: cell extract with 1.5 μg/ml full length hPPARγ1, 20 nM [3H]-compound A, 4° C., 16 hrs
Exercise: for every item that follows, state its recorded IC50.
Respond with the bare value in nM.

[ask] For CCOC(=O)c1cn(-c2ccccc2)nc1OCc1ccc(OCc2nc(-c3ccco3)oc2C)c(OC)c1 , what is its reported IC50?
[reply] 770

[ask] Same question, COc1cc(COc2nn(-c3ccccc3)cc2/C=C/c2csc(C)n2)ccc1OCc1nc(-c2ccc(CC(=O)O)cc2)oc1C this time
[reply] 150

[ask] Same question, Cc1oc(-c2ccco2)nc1COc1ccc(COc2nn(Cc3ccccc3)cc2C=O)cn1 this time
[reply] 1100

[ask] Same question, COc1cc(COc2nn(-c3ccccc3)cc2C=O)ccc1OCc1nc(-c2ccco2)oc1C this time
[reply] 190

[ask] Same question, COc1cc(COc2nn(-c3ccccc3)cc2/C=C/C#N)ccc1OCc1nc(-c2ccccc2)oc1C this time
[reply] 120

[ask] Same question, CCc1nc(/C=C/c2cn(-c3ccccc3)nc2OCc2ccc(OCc3nc(-c4cccc(C(=O)O)c4)oc3C)c(OC)c2)cs1 this time
[reply] 3.6

[ask] Same question, CCOP(=O)(/C=C/c1cn(-c2ccccc2)nc1OCc1ccc(OCc2nc(-c3ccc(CC(=O)O)cc3)oc2C)c(OC)c1)OCC this time
[reply] 69

[ask] Same question, CCOP(=O)(/C=C/c1cn(-c2ccccc2)nc1OCc1ccc(OCc2nc(-c3cccc(CC(=O)O)c3)oc2C)c(OC)c1)OCC this time
[reply] 33

[ask] Same question, COc1cc(COc2nn(-c3ccccc3)cc2CO)ccc1OCc1nc(-c2ccco2)oc1C this time
[reply] 660

[ask] Same question, CCOP(=O)(CCc1cn(-c2ccccc2)nc1OCc1ccc(OCc2nc(-c3ccco3)oc2C)c(OC)c1)OCC this time
[reply] 210

[ask] Same question, CCOP(=O)(/C=C/c1cn(-c2ccccc2)nc1OCc1ccc(OCc2nc(-c3cccc(C(N)=O)c3)oc2C)c(OC)c1)OCC this time
[reply] 61

[ask] Same question, CCc1nc(/C=C/c2cn(-c3ccccc3)nc2OCc2ccc(OCc3nc(-c4ccc(CC(=O)O)cc4)oc3C)c(OC)c2)co1 this time
[reply] 83

[ask] Same question, CCc1nc(/C=C/c2cn(-c3ccccc3)nc2OCc2ccc(OCc3nc(-c4cccc(C(=O)O)c4)oc3C)c(OC)c2)co1 this time
[reply] 7.4

[ask] Same question, COc1cc(COc2nn(-c3ccccc3)cc2/C=C/P(=O)(OC(C)C)OC(C)C)ccc1OCc1nc(-c2ccco2)oc1C this time
[reply] 80

[ask] Same question, COc1cc(COc2nn(-c3ccccc3)cc2/C=C/c2csc(C(C)C)n2)ccc1OCc1nc(-c2ccc(CC(=O)O)cc2)oc1C this time
[reply] 38

[ask] Same question, COc1cc(COc2nn(-c3ccccc3)cc2/C=C/c2coc(C(C)C)n2)ccc1OCc1nc(-c2ccc(CC(=O)O)cc2)oc1C this time
[reply] 32

[ask] Same question, CCOP(=O)(/C=C/c1cn(-c2ccccc2)nc1OCc1ccc(OCc2nc(/C=C/C(=O)O)oc2C)c(OC)c1)OCC this time
[reply] 500

[ask] Same question, CCn1cnc(/C=C/c2cn(-c3ccccc3)nc2OCc2ccc(OCc3nc(-c4ccc(CC(=O)O)cc4)oc3C)c(OC)c2)c1 this time
[reply] 46

[ask] Same question, CCOP(=O)(/C=C/c1cn(-c2ccccc2)nc1OCc1ccc(OCc2nc(-c3ccco3)oc2C)c(OC)c1)OCC [Example 116 (E form)] this time
[reply] 39

[ask] Same question, CCOP(=O)(/C=C/c1cn(-c2ccccc2)nc1OCc1ccc(OCc2nc(-c3ccccc3)oc2C)c(OC)c1)OCC this time
[reply] 68

[ask] Same question, COc1cc(COc2nn(-c3ccccc3)cc2C#N)ccc1OCc1nc(-c2ccco2)oc1C this time
[reply] 79

[ask] Same question, CCOP(=O)(/C=C/c1cn(-c2ccccc2)nc1OCc1ccc(OCc2nc(-c3ccc(OC)c(C(=O)O)c3)oc2C)c(OC)c1)OCC this time
[reply] 23

[ask] Same question, CCOC(=O)/C=C/c1cn(-c2ccccc2)nc1OCc1ccc(OCc2nc(-c3ccccc3)oc2C)c(OC)c1 this time
[reply] 75

[ask] Same question, CCOP(=O)(/C=C/c1cn(-c2ccccc2)nc1OCc1ccc(OCc2nc(-c3cccc(-c4nnn[nH]4)c3)oc2C)c(OC)c1)OCC this time
[reply] 7.7

[ask] Same question, CCOP(=O)(/C=C/c1cn(-c2ccccc2)nc1OCc1ccc(OCc2nc(-c3cccc(C(=O)OC)c3)oc2C)c(OC)c1)OCC this time
[reply] 27

[ask] Same question, CCOP(=O)(/C=C/c1cn(-c2ccccc2)nc1OCc1ccc(OCc2csc(N3CCOCC3)n2)c(OC)c1)OCC this time
[reply] 810

[ask] Same question, CCC(=O)/C=C/c1cn(-c2ccccc2)nc1OCc1ccc(OCc2nc(-c3ccco3)oc2C)c(OC)c1 this time
[reply] 7300

---

QUANTITY: melting point

[ask] For CCOC(=O)c1cn(Cc2ccccc2)nc1OCc1ccc(OCc2nc(-c3ccco3)oc2C)c(O)c1 [Example 46] , what is its reported melting point?
[reply] 134 to 135 °C

[ask] Same question, COC(=O)c1cc(OCc2ccc(OCc3nc(-c4ccccc4)oc3C)c(OC)c2)nn1-c1ccccc1 [Example 291] this time
[reply] 143 to 144 °C

[ask] Same question, CCc1cc(COc2nn(Cc3ccccc3)cc2C=O)ccc1OCc1nc(-c2ccco2)oc1C [Example 71] this time
[reply] 128 to 129 °C

[ask] Same question, CCn1cncc1/C=C/c1cn(-c2ccccc2)nc1OCc1ccc(OCc2nc(-c3ccco3)oc2C)c(OC)c1 [Example 182] this time
[reply] 130 to 132 °C

---

Exercise: for every item that follows, state its recorded melting point.

[ask] For COc1cc(COc2nn(-c3ccccc3)cc2/C=C/P(=O)(OC(C)C)OC(C)C)ccc1OCc1nc(-c2ccco2)oc1C , what is its reported melting point?
[reply] 152 to 153 °C

[ask] Same question, CCOC(=O)c1cn(Cc2ccccc2)nc1OCc1ccc(OCc2nc(-c3ccco3)oc2C)c(Br)c1 this time
[reply] 158 to 159 °C

[ask] Same question, CCCc1nnc(/C=C/c2cc(OCc3ccc(OCc4nc(-c5ccco5)oc4C)c(OC)c3)nn2-c2ccccc2)o1 this time
[reply] 107 to 108 °C

[ask] Same question, CCOP(=O)(/C=C/c1cn(C)nc1OCc1ccc(OCc2nc(-c3ccco3)oc2C)c(OC)c1)OCC this time
[reply] 72 to 73 °C

[ask] Same question, CCOP(=O)(/C=C/c1cn(-c2ccccc2)nc1OCc1ccc(OCc2coc(-c3ccco3)n2)c(OC)c1)OCC this time
[reply] 96 to 97 °C

[ask] Same question, COc1cc(COc2nn(-c3ccccc3)cc2/C=C/c2nc(N3CCCCC3)sc2C)ccc1OCc1nc(-c2ccc(CC(=O)O)cc2)oc1C this time
[reply] 146 to 148 °C

[ask] Same question, CCOP(=O)(/C=C/c1cn(-c2ccccc2)nc1OCc1ccc(OCc2cn(-c3ccccn3)nc2C)c(OC)c1)OCC this time
[reply] 103 to 104 °C

[ask] Same question, CCOP(=O)(/C=C/c1cn(-c2ccccc2)nc1OCc1ccc(OCc2csc(N3CCOCC3)n2)c(OC)c1)OCC this time
[reply] 93 to 94 °C

[ask] Same question, Cc1oc(-c2ccco2)nc1COc1ccc(COc2nn(Cc3ccccc3)cc2C=O)cc1 this time
[reply] 118 to 119 °C

[ask] Same question, Cc1oc(-c2ccco2)nc1COc1ccc(COc2nn(-c3ccccc3)cc2C=O)cn1 this time
[reply] 122 to 123 °C

[ask] Same question, COc1cc(COc2nn(-c3ccccc3)cc2/C=C/c2nc(C(=O)O)cs2)ccc1OCc1nc(-c2ccco2)oc1C this time
[reply] 170 to 172 °C

[ask] Same question, CCOP(=O)(/C=C/c1cn(-c2ccccc2)nc1OCc1ccc(OCc2nc(-c3ccc(C(N)=O)cc3)oc2C)c(OC)c1)OCC this time
[reply] 146 to 148 °C

[ask] Same question, CCOP(=O)(/C=C/c1cn(-c2ccccc2)nc1OCc1ccc(OCc2nc(-c3ccco3)oc2C)c(C(=O)OC)c1)OCC this time
[reply] 92 to 93 °C

[ask] Same question, COc1cc(COc2nn(Cc3ccccc3)cc2C=O)ccc1OCc1nc(-c2ccccc2)oc1C this time
[reply] 151 to 152 °C

[ask] Same question, CCCc1nnc(/C=C/c2cn(Cc3ccccc3)nc2OCc2ccc(OCc3nc(-c4ccco4)oc3C)c(OC)c2)o1 this time
[reply] 146 to 147 °C

[ask] Same question, COc1cc(COc2nn(-c3ccccc3)cc2/C=C/C2=NCCO2)ccc1OCc1nc(-c2ccco2)oc1C this time
[reply] 162 to 163 °C

[ask] Same question, CCOP(=O)(/C=C/c1cn(-c2ccccc2)nc1OCc1ccc(OCc2nc(-c3cccnc3)oc2C)c(OC)c1)OCC this time
[reply] 128 to 129 °C

[ask] Same question, CCOC(=O)c1ccc(-c2nc(COc3ccc(COc4nn(-c5ccccc5)cc4C=O)cc3OC)c(C)o2)o1 this time
[reply] 143 to 145 °C

[ask] Same question, COc1cc(COc2nn(-c3ccccc3)cc2/C=C/C#N)ccc1OCc1nc(-c2ccccc2)oc1C this time
[reply] 184 to 185 °C

[ask] Same question, CCOC(=O)c1cn(Cc2ccccc2)nc1OCc1cccc(OCc2nc(-c3ccccc3)oc2C)c1 this time
[reply] 95 to 96 °C

[ask] Same question, CCc1nc(/C=C/c2cn(-c3ccccc3)nc2OCc2ccc(OCc3nc(N4CCOCC4)sc3C)c(OC)c2)cs1 [Example 232 (E form)] this time
[reply] 76 to 78 °C

[ask] Same question, CCOC(=O)/C=C/c1nc(COc2ccc(COc3nn(-c4ccccc4)cc3C=O)cc2OC)c(C)o1 this time
[reply] 150 to 151 °C

[ask] Same question, COc1cc(COc2nn(-c3ccccc3)cc2C=O)ccc1OCc1nc(-c2ccccc2)cn1C this time
[reply] 126 to 127 °C

[ask] Same question, CCOC(=O)c1ccc(-c2nc(COc3ccc(COc4nn(-c5ccccc5)cc4C=O)cc3OC)c(C)o2)s1 this time
[reply] 156 to 157 °C

[ask] Same question, CCOC(=O)/C=C/c1cc(OCc2ccc(OCc3nc(-c4ccco4)oc3C)c(OC)c2)nn1-c1ccccc1 this time
[reply] 127 to 128 °C

[ask] Same question, COc1cc(COc2nn(-c3ccc(C(F)(F)F)cc3)cc2/C=C/CO)ccc1OCc1nc(-c2ccccc2)oc1C this time
[reply] 118 to 119 °C

[ask] Same question, COc1cc(COc2nn(Cc3ccccc3)cc2C(C)O)ccc1OCc1nc(-c2ccco2)oc1C (stereo not drawn) this time
[reply] 105 to 106 °C

[ask] Same question, COc1cc(COc2nn(Cc3ccccc3)cc2C(=O)O)ccc1OCc1nc(-c2ccco2)oc1C this time
[reply] 167 to 168 °C

[ask] Same question, COc1cc(COc2nn(Cc3ccccc3)cc2CO)ccc1OCc1nc(-c2ccccc2)oc1C this time
[reply] 90 to 91 °C

[ask] Same question, Cc1oc(-c2ccco2)nc1COc1ccc(COc2nn(Cc3ccccc3)cc2C(=O)O)cc1 this time
[reply] 170 to 171 °C

Values from patent US7368578B2
